Hello, the source for this data is PubChem BioAssay (NCI), in case you need it.

test system: SN12C renal; experiment: NCI tumour cell line growth inhibition, 48 h
assay readout: TGI (µM)
Give bare numbers, in µM.

# annotated cases, reported TGI shown
- compound: "Clc1ccc(CSC2=NCCN2)cc1Cl"
  TGI [µM]: 35.8
- compound: "COc1cc(OC)cc(C2C(C#N)=C(N)Oc3c2ccc2ccc(O)cc32)c1 (stereo not drawn)"
  TGI [µM]: 5.89
- compound: "Cn1c(-c2c(N)n(Cc3ccc(C(F)(F)F)cc3)c3nc(C#N)c(C#N)nc23)nc2ccccc21"
  TGI [µM]: 71.6

Now look at this one.
Measured TGI, COc1ccc(C(O)c2cc3c(N)c(C(=O)Nc4cccc(OC)c4)sc3nc2C)cc1 (stereo not drawn) : 3.38

###

system: UACC-257 melanoma; test: NCI tumour cell line growth inhibition, 48 h
Field: TGI. Provide a value for each of the compounds that follow.

# annotated cases, reported TGI shown
- compound: "Clc1ccc(C2=NOC(C3CCCCC3)C2)cc1 (stereo unspecified)"
  TGI: "> 100 µM"
- compound: "O=c1ccn(C2OC(COC3CCCCO3)C(OC3CCCCO3)C2OC2CCCCO2)c(=O)n1-c1ccccc1 (stereo unspecified)"
  TGI: "> 100 µM"
- compound: "CN(C)CCCCC1CCN(CC(=O)N2c3ccccc3NC(=O)c3ccccc32)CC1"
  TGI: "> 100 µM"
- compound: "O=C(NC1CCC(Br)CC1)C1CCCC(S(=O)(=O)NC2CCCCC2)C1 (stereo unspecified)"
  TGI: "38.4 µM"
- compound: "[N-]=[N+]=Nc1ccc2c(c1)Sc1ccccc1N2CCCCN1CCN(Cc2ccc(C(=O)c3ccccc3)cc2)CC1"
  TGI: "4.41 µM"

Each compound below has a recorded value; state its TGI.
1. Cc1cc(Nc2ncc(F)c(N[C@H]3[C@@H](C(N)=O)[C@@H]4C=C[C@H]3C4)n2)ccc1N1CCN(C)CC1
2. CC1SC(c2ccc(Cl)c(Cl)c2)N(NC(=O)C(O)c2ccccc2)C1=O (stereo unspecified)
3. Cn1c(/C=C/CO)c(CO)c2c1C(=O)C=C(N1CC1)C2=O
4. C/C(CC(=O)Nc1ccc(C)c(C)c1)=N\NC(N)=S
5. O=C(c1ccccc1)c1nc2ccc(Cl)cc2c2c1Cc1ccccc1-2
6. O=C(/C=C/c1cccc([N+](=O)[O-])c1)c1cccnc1
7. Cn1cc(C2=C(c3c4n(c5ccccc35)CCN(C(N)=S)C4)C(=O)NC2=O)c2ccccc21
8. O=C1OC(CC(=O)c2ccccc2Cl)C(Cl)=C1Cl (stereo unspecified)

A)
1: 18.1 µM; 2: > 100 µM; 3: 0.018 µM; 4: > 100 µM; 5: > 100 µM; 6: 97.7 µM; 7: > 25 µM; 8: > 100 µM

###

tested on: MALME-3M melanoma; experiment: NCI tumour cell line growth inhibition, 48 h
assay readout: GI50

- substance smiles: "Cn1c(-c2c(N)n(Cc3ccc(C(F)(F)F)cc3)c3nc(C#N)c(C#N)nc23)nc2ccccc21"
  GI50: "21.9 µM"
- substance smiles: "COc1cc(NC(=O)c2ccc(C(F)(F)F)nc2Nc2cc(Cl)ccc2C)cc(OC)c1OC"
  GI50: "9.84 µM"

Now look at this one.
Measured GI50, `CC/C=C\C/C=C\C[C@H]1C/C=C2/C(=O)C=C[C@@H]2C/C=C\CCC(=O)O1` : 1.96 µM
